# System tested: Nitric oxide synthase 3 (Bos taurus, UniProt P29473)
# Experiment summary: Inhibition of endothelial isoform of nitric oxide synthase
Assay readout: pKi
Reminder that pKi is minus the log10 of a molar concentration.

Here are 3 molecules together with their reported answers.
INSERT INTO measurements (chemical_structure, readout_value) VALUES
  ('COC(=O)[C@@H](CCCNC(=N)N[N+](=O)[O-])NC(=O)[C@H](N)Cc1ccccc1', 2.07),
  ('COC(=O)[C@@H](Cc1ccccc1)NC(=O)[C@@H](N)CCC/N=C(\N)N[N+](=O)[O-]', 3.28),
  ('COC(=O)[C@H](CCC/N=C(\N)N[N+](=O)[O-])NC(=O)[C@@H](N)Cc1ccccc1', 2.87);

# next molecule below
Summary for this molecule, COC(=O)[C@@H](CCC/N=C(\N)N[N+](=O)[O-])NC(=O)[C@@H](N)Cc1ccccc1 : pKi is 3.82

###

# System tested: Nitric oxide synthase 3 (Bos taurus, UniProt P29473)
# Sequence (P29473 whole entry): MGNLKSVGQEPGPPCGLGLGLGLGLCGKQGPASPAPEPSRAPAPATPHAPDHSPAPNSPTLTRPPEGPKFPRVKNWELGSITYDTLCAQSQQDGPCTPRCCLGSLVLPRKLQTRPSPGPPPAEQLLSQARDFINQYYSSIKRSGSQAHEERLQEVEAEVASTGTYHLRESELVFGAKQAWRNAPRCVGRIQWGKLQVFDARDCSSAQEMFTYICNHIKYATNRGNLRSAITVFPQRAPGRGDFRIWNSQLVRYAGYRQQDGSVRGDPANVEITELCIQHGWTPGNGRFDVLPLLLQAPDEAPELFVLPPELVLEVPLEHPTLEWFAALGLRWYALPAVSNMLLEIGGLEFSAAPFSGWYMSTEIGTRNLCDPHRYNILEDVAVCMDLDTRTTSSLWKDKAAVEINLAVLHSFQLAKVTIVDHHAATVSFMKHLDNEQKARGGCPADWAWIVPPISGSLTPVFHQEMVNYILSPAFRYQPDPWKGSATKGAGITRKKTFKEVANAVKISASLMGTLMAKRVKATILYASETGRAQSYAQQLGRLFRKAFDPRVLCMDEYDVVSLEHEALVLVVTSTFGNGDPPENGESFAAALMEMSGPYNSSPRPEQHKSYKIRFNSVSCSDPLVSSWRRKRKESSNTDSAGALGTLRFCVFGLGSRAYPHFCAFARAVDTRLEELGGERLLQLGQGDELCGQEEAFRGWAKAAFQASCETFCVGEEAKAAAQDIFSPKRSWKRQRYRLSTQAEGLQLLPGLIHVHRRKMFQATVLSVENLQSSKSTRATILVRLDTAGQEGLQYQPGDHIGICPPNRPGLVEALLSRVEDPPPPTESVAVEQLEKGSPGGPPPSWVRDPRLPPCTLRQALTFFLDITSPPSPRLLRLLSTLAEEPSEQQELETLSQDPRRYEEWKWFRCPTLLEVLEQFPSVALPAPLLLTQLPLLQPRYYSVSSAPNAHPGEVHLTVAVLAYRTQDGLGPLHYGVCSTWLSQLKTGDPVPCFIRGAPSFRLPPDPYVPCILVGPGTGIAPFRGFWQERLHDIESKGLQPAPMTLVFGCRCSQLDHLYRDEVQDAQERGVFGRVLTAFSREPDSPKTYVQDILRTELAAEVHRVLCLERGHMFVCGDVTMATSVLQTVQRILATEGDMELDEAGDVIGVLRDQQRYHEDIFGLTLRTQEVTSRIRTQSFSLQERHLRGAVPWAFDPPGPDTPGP
# Experiment summary: Inhibition of endothelial isoform of nitric oxide synthase
Where a SMILES comes first, the peptide text is derived from it. [ ]: non-standard residue; d: D form. The star is where a group is joined. dArg(NO2) = N=C(NCCC[C@@H](N)C(=O)O)N[N+](=O)[O-]; Arg(NO2) = N=C(NCCC[C@H](N)C(=O)O)N[N+](=O)[O-]; OBn = c1ccc(CO*)cc1
Assay readout: Ki (µM)
Numeric answer only, unit µM assumed.

Here are 3 compounds together with their reported answers.
INSERT INTO measurements (compound, readout_value) VALUES
  ('N=C(NCCC[C@H](NC(=O)[C@@H](N)Cc1ccccc1)C(=O)O)N[N+](=O)[O-] (H-Phe-[Arg(NO2)]-OH)', 490),
  ('COC(=O)[C@H](Cc1ccccc1)NC(=O)[C@@H](N)CCC/N=C(\N)N[N+](=O)[O-]', 400),
  ('N/C(=N\CCC[C@H](NC(=O)[C@@H](N)Cc1ccccc1)C(=O)OCc1ccccc1)N[N+](=O)[O-] (H-Phe-[Arg(NO2)]-OBn)', 250);

Summary for this compound, COC(=O)[C@@H](Cc1ccccc1)NC(=O)[C@H](N)CCCNC(=N)N[N+](=O)[O-] : Ki is 375

Summary for this compound, N/C(=N\CCC[C@H](N)C(=O)N[C@@H](Cc1ccccc1)C(=O)O)N[N+](=O)[O-] : Ki is 395

Summary for this compound, N/C(=N\CCC[C@H](N)C(=O)N[C@@H](Cc1ccccc1)C(=O)OCc1ccccc1)N[N+](=O)[O-] : Ki is 125

Summary for this compound, N/C(=N\CCC[C@@H](NC(=O)[C@H](N)Cc1ccccc1)C(=O)O)N[N+](=O)[O-] (H-[dF]-[dArg(NO2)]-OH) : Ki is 90

Summary for this compound, COC(=O)[C@@H](CCCNC(=N)N[N+](=O)[O-])NC(=O)[C@H](N)Cc1ccccc1 : Ki is 5
